Entries and their Emax
Biological target: GluN2B glutamate receptors (Homo sapiens (Human), UniProt Q05586+Q13224)
Sequence (Q13224 27-1484, other chains not shown): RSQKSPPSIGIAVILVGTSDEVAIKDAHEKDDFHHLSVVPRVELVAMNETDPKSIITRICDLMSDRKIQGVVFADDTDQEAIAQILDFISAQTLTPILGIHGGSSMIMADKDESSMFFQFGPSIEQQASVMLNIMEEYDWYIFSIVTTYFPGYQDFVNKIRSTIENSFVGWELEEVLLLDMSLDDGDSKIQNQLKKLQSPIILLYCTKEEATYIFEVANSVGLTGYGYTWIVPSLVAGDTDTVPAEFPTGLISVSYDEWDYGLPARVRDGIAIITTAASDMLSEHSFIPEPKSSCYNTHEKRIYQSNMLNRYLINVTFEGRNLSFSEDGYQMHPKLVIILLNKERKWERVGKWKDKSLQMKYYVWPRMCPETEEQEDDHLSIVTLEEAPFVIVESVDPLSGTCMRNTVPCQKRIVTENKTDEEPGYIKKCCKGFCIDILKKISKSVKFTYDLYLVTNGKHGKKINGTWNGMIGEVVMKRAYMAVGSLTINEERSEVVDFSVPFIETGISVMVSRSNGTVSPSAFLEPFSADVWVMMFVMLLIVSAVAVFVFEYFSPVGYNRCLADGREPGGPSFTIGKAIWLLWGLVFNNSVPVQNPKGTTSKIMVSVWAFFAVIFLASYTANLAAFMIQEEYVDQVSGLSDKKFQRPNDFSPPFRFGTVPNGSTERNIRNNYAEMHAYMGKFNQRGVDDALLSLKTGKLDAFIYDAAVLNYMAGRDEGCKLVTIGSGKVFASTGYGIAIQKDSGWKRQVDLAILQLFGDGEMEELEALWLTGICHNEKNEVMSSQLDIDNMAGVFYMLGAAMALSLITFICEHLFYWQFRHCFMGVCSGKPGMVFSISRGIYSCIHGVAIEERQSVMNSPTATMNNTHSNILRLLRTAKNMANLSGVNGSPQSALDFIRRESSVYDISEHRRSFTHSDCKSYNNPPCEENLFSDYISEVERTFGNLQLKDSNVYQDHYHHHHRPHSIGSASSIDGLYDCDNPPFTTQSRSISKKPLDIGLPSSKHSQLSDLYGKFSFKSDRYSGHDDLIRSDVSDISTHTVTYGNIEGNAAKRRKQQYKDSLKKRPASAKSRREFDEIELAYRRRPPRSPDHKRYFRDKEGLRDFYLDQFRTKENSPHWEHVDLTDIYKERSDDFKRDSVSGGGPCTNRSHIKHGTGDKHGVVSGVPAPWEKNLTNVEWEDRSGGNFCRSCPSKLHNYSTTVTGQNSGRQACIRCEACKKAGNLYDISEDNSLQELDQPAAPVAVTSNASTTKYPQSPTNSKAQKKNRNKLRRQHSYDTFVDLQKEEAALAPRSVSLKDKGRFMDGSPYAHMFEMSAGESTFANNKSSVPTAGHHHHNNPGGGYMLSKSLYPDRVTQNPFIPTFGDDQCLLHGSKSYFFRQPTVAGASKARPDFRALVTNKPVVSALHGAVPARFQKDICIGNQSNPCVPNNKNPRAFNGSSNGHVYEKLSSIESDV
Test: Whole-cell patch clamp of mammalian cells (Ionworks Barracuda), positive allosteric modulation, GluN2B
Format: cell-based
Settings: % potentiation of current elicited with EC20 L-glutamate and 30 μM glycine; read-out: Avg Emax 2B (%)
result_type: Emax (%)

compound=CC(C)[C@@H](O)CC[C@@H](C)[C@H]1CC[C@H]2[C@@H]3CC[C@H]4C[C@@](C)(O)CC[C@@H]4[C@H]3CC[C@]12C measurement_units=% observed=308
compound=CC[C@]1(O)CC[C@H]2C(=CC[C@@H]3[C@@H]2CC[C@]2(C)[C@@H]([C@H](C)CCC4(O)CCC(F)(F)CC4)CC[C@@H]32)C1 measurement_units=% observed=243
compound=C[C@H](CCC1(O)CCC(C)(C)CC1)[C@H]1CC[C@H]2[C@@H]3CC=C4C[C@](O)(C(F)(F)F)CC[C@]4(C)[C@H]3CC[C@]12C measurement_units=% observed=32.8

###

Target: GlunN1/GluN2A glutamate receptors (Homo sapiens (Human), UniProt Q05586+Q12879)
Sequence (Q12879 23-1464, other chains not shown): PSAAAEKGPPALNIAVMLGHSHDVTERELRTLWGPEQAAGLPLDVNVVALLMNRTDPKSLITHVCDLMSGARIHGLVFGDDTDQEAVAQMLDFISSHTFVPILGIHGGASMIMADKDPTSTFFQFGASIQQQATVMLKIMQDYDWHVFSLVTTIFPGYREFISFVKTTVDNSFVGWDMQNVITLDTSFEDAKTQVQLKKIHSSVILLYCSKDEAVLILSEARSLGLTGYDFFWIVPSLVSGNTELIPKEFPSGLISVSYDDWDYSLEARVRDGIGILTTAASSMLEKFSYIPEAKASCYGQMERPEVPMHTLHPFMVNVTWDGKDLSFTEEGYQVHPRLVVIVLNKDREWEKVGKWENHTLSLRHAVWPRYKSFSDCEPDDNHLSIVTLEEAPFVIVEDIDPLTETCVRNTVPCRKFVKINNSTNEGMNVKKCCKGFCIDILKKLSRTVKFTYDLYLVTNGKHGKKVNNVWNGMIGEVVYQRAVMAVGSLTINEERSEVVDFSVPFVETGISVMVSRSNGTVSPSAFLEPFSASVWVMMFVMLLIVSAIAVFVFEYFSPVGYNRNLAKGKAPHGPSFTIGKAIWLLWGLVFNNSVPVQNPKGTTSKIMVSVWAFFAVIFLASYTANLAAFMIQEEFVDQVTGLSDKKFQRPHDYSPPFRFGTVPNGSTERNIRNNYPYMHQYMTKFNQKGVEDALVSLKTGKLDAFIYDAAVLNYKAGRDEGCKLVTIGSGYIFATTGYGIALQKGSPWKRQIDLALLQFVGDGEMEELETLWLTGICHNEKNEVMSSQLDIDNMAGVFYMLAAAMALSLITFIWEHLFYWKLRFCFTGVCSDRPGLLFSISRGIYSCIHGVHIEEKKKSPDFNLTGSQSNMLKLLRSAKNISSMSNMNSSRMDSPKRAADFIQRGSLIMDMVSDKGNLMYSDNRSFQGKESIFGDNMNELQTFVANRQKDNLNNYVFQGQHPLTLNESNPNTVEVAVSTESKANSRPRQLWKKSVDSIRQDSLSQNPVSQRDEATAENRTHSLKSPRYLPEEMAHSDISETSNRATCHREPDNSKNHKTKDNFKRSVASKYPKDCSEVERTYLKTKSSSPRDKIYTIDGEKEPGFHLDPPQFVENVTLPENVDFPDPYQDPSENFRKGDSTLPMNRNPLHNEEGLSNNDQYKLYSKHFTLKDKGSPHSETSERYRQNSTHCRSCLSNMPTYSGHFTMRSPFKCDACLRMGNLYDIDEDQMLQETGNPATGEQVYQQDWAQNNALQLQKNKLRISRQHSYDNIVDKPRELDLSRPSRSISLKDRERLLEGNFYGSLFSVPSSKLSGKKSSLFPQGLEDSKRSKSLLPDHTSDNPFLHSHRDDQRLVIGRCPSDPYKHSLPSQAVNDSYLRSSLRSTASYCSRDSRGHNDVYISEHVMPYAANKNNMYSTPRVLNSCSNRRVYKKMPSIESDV
Assay: Whole-cell patch clamp of mammalian cells (Ionworks Barracuda), positive allosteric modulation, GluN1/GluN2A
Type: cell-based
Details: HEK293 cells; co-application with EC20 L-glutamate and 30 μM glycine; 8-point concentration-response; read-out: Avg EC50 2A
pEC50: −log10 of the molar value.
result_type: pEC50

compound="C[C@H](CCC(O)c1ccncc1)[C@H]1CC[C@H]2[C@@H]3CC=C4C[C@@](C)(O)CC[C@]4(C)[C@H]3CC[C@]12C (stereo partly drawn)" result_type=pEC50 measurement_qualifier=< observed=5.00
compound=CC[C@]1(O)CC[C@H]2[C@@H](CC[C@@H]3[C@@H]2CC[C@]2(C)[C@@H]([C@H](C)CCCC4(O)CCC(F)(F)CC4)CC[C@@H]32)C1 result_type=pEC50 measurement_qualifier== observed=6.33
compound=CC(C)[C@@H](O)CC[C@@H](C)[C@H]1CC[C@H]2[C@@H]3CC[C@H]4C[C@](O)(C(F)(F)F)CC[C@]4(C)[C@H]3CC[C@]12C result_type=pEC50 measurement_qualifier== observed=6.80

###

Entries and their EC50
Target: GluN2B glutamate receptors (Homo sapiens (Human), UniProt Q05586+Q13224)
Assay: Whole-cell patch clamp of mammalian cells (Ionworks Barracuda), positive allosteric modulation, GluN2B
Assay type: cell-based
result_type: EC50 (nM)

compound="C[C@H](CCC(O)C(F)(F)F)[C@H]1CC[C@H]2[C@@H]3CC[C@H]4C[C@](O)(C(F)(F)F)CC[C@]4(C)[C@H]3CC[C@]12C (some centres unmarked)" target="GluN2B glutamate receptors (Homo sapiens (Human), UniProt Q05586+Q13224)" result_type=EC50 observed=339
compound=CC[C@]1(O)CC[C@H]2C(=CC[C@@H]3[C@@H]2CC[C@]2(C)[C@@H]([C@H](C)CC[C@H](O)C(C)C)CC[C@@H]32)C1 target="GluN2B glutamate receptors (Homo sapiens (Human), UniProt Q05586+Q13224)" result_type=EC50 observed=96.2
compound=C[C@H](CCC1(O)CCCCCC1)[C@H]1CC[C@H]2[C@@H]3CC[C@H]4C[C@](O)(C(F)(F)F)CC[C@]4(C)[C@H]3CC[C@]12C target="GluN2B glutamate receptors (Homo sapiens (Human), UniProt Q05586+Q13224)" result_type=EC50 observed=248
compound=CC[C@]1(O)CC[C@H]2C(=CC[C@@H]3[C@@H]2CC[C@]2(C)[C@@H]([C@H](C)CC[C@]4(O)CCOC4)CC[C@@H]32)C1 target="GluN2B glutamate receptors (Homo sapiens (Human), UniProt Q05586+Q13224)" result_type=EC50 observed=75.1
compound=CC[C@]1(O)CC[C@H]2C(=CC[C@@H]3[C@@H]2CC[C@]2(C)[C@@H]([C@H](C)CCC4(O)CCC(F)(F)CC4)CC[C@@H]32)C1 target="GluN2B glutamate receptors (Homo sapiens (Human), UniProt Q05586+Q13224)" result_type=EC50 observed=553

###

Biological target: GlunN1/GluN2A glutamate receptors (Homo sapiens (Human), UniProt Q05586+Q12879)
Experiment: Whole-cell patch clamp of mammalian cells (Ionworks Barracuda), positive allosteric modulation, GluN1/GluN2A
Type: cell-based
Details: HEK293, read-out: Avg Emax 2A (%)
Entries and their Emax
result_type: Emax (%)

compound="CC[C@@H](O)CC[C@@H](C)[C@H]1CC[C@H]2[C@@H]3CC[C@H]4C[C@](O)(CC)CC[C@@H]4[C@H]3CC[C@]12C [Compound 9142]" observed=41.6
compound="CC[C@]1(O)CC[C@@]2(C)C(=CC[C@H]3[C@@H]4CC[C@H]([C@H](C)CC[C@@H](O)c5ccc(F)cc5)[C@@]4(C)CC[C@@H]32)C1 [Compound 7147]" observed=200
compound="C[C@H](CC[C@](C)(O)c1ccccc1)[C@H]1CC[C@H]2[C@@H]3CC=C4C[C@@](C)(O)CC[C@]4(C)[C@H]3CC[C@]12C [Compound 7468]" observed=273

###

Target: GlunN1/GluN2A glutamate receptors (Homo sapiens (Human), UniProt Q05586+Q12879)
Assay: Whole-cell patch clamp of mammalian cells (Ionworks Barracuda), positive allosteric modulation, GluN1/GluN2A
Assay type: cell-based
Settings: HEK293 cells; % potentiation of current elicited with EC20 L-glutamate and 30 μM glycine; read-out: Avg Emax 2A (%)
Entries and their Emax
result_type: Emax (%)

compound="CC[C@]1(O)CC[C@H]2[C@@H](CC[C@@H]3[C@@H]2CC[C@]2(C)[C@@H]([C@H](C)CCC4(O)CCC(C)(C)CC4)CC[C@@H]32)C1 [Compound 8963]" observed=8.4
compound="CC[C@]1(O)CC[C@@]2(C)C(=CC[C@H]3[C@@H]4CC[C@H]([C@H](C)CC[C@H](O)c5cccc(C#N)c5)[C@@]4(C)CC[C@@H]32)C1 [Compound 6998]" observed=338
compound="CCC1(C)CCC(O)(CC[C@@H](C)[C@H]2CC[C@H]3[C@@H]4CC[C@H]5C[C@](O)(C(F)(F)F)CC[C@]5(C)[C@H]4CC[C@]23C)CC1 (some centres unmarked) [Compound 4906]" observed=8.8
compound="C[C@H](CCC(O)c1ccncc1)[C@H]1CC[C@H]2[C@@H]3CC=C4C[C@@](C)(O)CC[C@]4(C)[C@H]3CC[C@]12C (some centres unmarked) [Compound 154]" observed=18.2
compound="COC[C@H]1CC[C@@](O)(CC[C@@H](C)[C@H]2CC[C@H]3[C@@H]4CC[C@H]5C[C@](O)(C(F)(F)F)CC[C@]5(C)[C@H]4CC[C@]23C)CC1 [Compound 4656]" observed=134

###

Entries and their Emax
Biological target: GluN2B glutamate receptors (Homo sapiens (Human), UniProt Q05586+Q13224)
Assay: Whole-cell patch clamp of mammalian cells (Ionworks Barracuda), positive allosteric modulation, GluN2B
Assay type: cell-based
Conditions: % potentiation of current elicited with EC20 L-glutamate and 30 μM glycine; read-out: Avg Emax 2B (%)
result_type: Emax (%)

molecule=C[C@H](CCC[C@@H](O)C(C)(C)C)[C@H]1CC[C@H]2[C@@H]3CC[C@H]4C[C@](O)(C(F)(F)F)CC[C@]4(C)[C@H]3CC[C@]12C observed=185
molecule=CC[C@]1(O)CC[C@@]2(C)[C@@H](CC[C@@H]3[C@@H]2CC[C@]2(C)[C@@H]([C@H](C)CC[C@@H](O)c4ccccn4)CC[C@@H]32)C1 observed=74.7
molecule="C[C@H](CCC(O)(c1ccccc1)C(F)(F)F)[C@H]1CC[C@H]2[C@@H]3CC=C4C[C@@](C)(O)CC[C@]4(C)[C@H]3CC[C@]12C (some centres unmarked)" observed=373
molecule=CC[C@]1(O)CC[C@H]2C(=CC[C@@H]3[C@@H]2CC[C@]2(C)[C@@H]([C@H](C)CCCC4(O)CCC(C)(C)CC4)CC[C@@H]32)C1 observed=59.9
molecule=CC[C@]1(O)CC[C@H]2C(=CC[C@@H]3[C@@H]2CC[C@]2(C)[C@@H]([C@H](C)CCC4(O)CCC(C)(C)CC4)CC[C@@H]32)C1 observed=231
molecule=CC[C@]1(O)CC[C@H]2[C@@H](CC[C@@H]3[C@@H]2CC[C@]2(C)[C@@H]([C@H](C)CCCC4(O)CCC(F)(F)CC4)CC[C@@H]32)C1 observed=99.9
molecule="CCC1(C)CCC(O)(CC[C@@H](C)[C@H]2CC[C@H]3[C@@H]4CC[C@H]5C[C@](O)(C(F)(F)F)CC[C@]5(C)[C@H]4CC[C@]23C)CC1 (some centres unmarked)" observed=14.8
molecule=C[C@H](CCC[C@@H](C)O)[C@H]1CC[C@H]2[C@@H]3CC[C@H]4C[C@](O)(C(F)(F)F)CC[C@]4(C)[C@H]3CC[C@]12C observed=151
molecule=C[C@H](CCC1(O)CCC2(CC1)COC2)[C@H]1CC[C@H]2[C@@H]3CC[C@H]4C[C@](O)(C(F)(F)F)CC[C@]4(C)[C@H]3CC[C@]12C observed=14.5
molecule=CC[C@]1(O)CC[C@@]2(C)C(=CC[C@H]3[C@@H]4CC[C@H]([C@H](C)CC[C@@H](O)Cc5ccccc5)[C@@]4(C)CC[C@@H]32)C1 observed=92.2
molecule=CC[C@]1(O)CC[C@@]2(C)C(=CC[C@H]3[C@@H]4CC[C@H]([C@H](C)CC[C@@H](O)c5ccccn5)[C@@]4(C)CC[C@@H]32)C1 observed=133
molecule=CC[C@]1(O)CC[C@@]2(C)[C@@H](CC[C@@H]3[C@@H]2CC[C@]2(C)[C@@H]([C@H](C)CC[C@H](O)c4ccccn4)CC[C@@H]32)C1 observed=63.8
molecule=COC[C@H]1CC[C@](O)(CC[C@@H](C)[C@H]2CC[C@H]3[C@@H]4CC[C@H]5C[C@](O)(C(F)(F)F)CC[C@]5(C)[C@H]4CC[C@]23C)CC1 observed=62.9
molecule=CC[C@]1(O)CC[C@@]2(C)C(=CC[C@H]3[C@@H]4CC[C@H]([C@H](C)CC[C@@H](O)c5cccnc5)[C@@]4(C)CC[C@@H]32)C1 observed=184
molecule="CC[C@]1(O)CC[C@@]2(C)[C@@H](CC[C@@H]3[C@@H]2CC[C@]2(C)[C@@H]([C@H](C)CCC(O)c4ccccc4)CC[C@@H]32)C1 (some centres unmarked)" observed=415
molecule=C[C@H](CCCC(C)(C)O)[C@H]1CC[C@H]2[C@@H]3CC[C@H]4C[C@](O)(C(F)(F)F)CC[C@]4(C)[C@H]3CC[C@]12C observed=214
molecule=CC[C@]1(O)CC[C@H]2C(=CC[C@@H]3[C@@H]2CC[C@]2(C)[C@@H]([C@H](C)CCC[C@@H](O)C(C)C)CC[C@@H]32)C1 observed=179
molecule=CC[C@]1(O)CC[C@@]2(C)C(=CC[C@H]3[C@@H]4CC[C@H]([C@H](C)CC[C@H](O)c5cccnc5)[C@@]4(C)CC[C@@H]32)C1 observed=79.4
molecule=C[C@H](CC[C@@H](C)O)[C@H]1CC[C@H]2[C@@H]3CC[C@H]4C[C@](O)(C(F)(F)F)CC[C@]4(C)[C@H]3CC[C@]12C observed=220
molecule=CC[C@]1(O)CC[C@H]2C(=CC[C@@H]3[C@@H]2CC[C@]2(C)[C@@H]([C@H](C)CCC[C@](C)(O)C(F)(F)F)CC[C@@H]32)C1 observed=202
